assay: Human HepG2 cell viability assay in 384 well format; assay type: toxicity, cell-based; design: dose 125 nL, time 70.5 hour; concentration not given beside the values; conditions: HepG2 cells, read-out: Inhibition
Readings of cytotoxicity at 70.5 h for the listed compounds
Measurement Label: cytotoxicity at 70.5 h (%)

# Compound, Observed Result
records = [
    ("C[C@H](NC(=O)c1cnc(-c2ccccc2)nc1O)C(N)=O", -7.97),
    ("O=C(O)Cc1cccc(-n2ccnc2-c2ccc(Cl)s2)c1", -4.96),
    ("Cc1cnn(C2CN(Cc3noc(C)n3)C2)c1", -6.5),
    ("Cc1cc(C)n(CC(C)Nc2nc(-c3ccncc3)nc3c2CNC3)n1 (stereo not drawn)", 17.3),
    ("CCC(C#N)NC(=O)c1ccc(Oc2cccnc2)cc1 (stereo not drawn)", -8.45),
    ("CCN(C(=O)NCc1ncc(C)c(OC)c1C)C(C)c1cccnc1 (stereo not drawn)", -9.02),
    ("CCOC(=O)CCCN1CCCC(C(=O)Nc2ccc(Cl)cn2)C1 (stereo not drawn)", 15.1),
    ("Cc1ccc(CN2Cc3nccn3CC(Cn3cncn3)C2)s1 (stereo not drawn)", -1.32),
    ("CNc1cc(C2CN(Cc3csc(C)n3)CCO2)nc(C)n1 (stereo not drawn)", 9.88),
    ("Cc1cnc(C(=O)N2CCC3(CC2)C(=O)NCCN3CC(C)C)cn1", -2.5),
    ("COc1cc(OC)cc(C2CC(=O)Nc3c2nc2n3CCCC2)c1 (stereo not drawn)", -3.11),
    ("COCc1noc(Cn2ncn3cccc3c2=O)n1", 6.69),
    ("O=S(=O)(c1ccc2c(c1)OCCO2)N1CCc2ccccc2C1", -7.73),
    ("O=C(c1ccncc1F)N1Cc2nc(CN3CCCCC3)oc2C1", -8.64),
    ("O=C(CCN1CCOCC1)NC1CCCN(CC2CCCCC2)C1 (stereo not drawn)", -3.9),
    ("CN(CC(=O)N(C)C1CCN(CC2CCOC2)CC1)c1ccccc1 (stereo not drawn)", -4.84),
    ("CCc1nccn1-c1cncc(C2CCCN2Cc2ccccn2)n1 (stereo not drawn)", -7.66),
    ("CC(O)CNC(=O)NCc1ccc(N2CCNC(=O)C2)cc1 (stereo not drawn)", 2.26),
]

---

Readings of cytotoxicity at 70.5 h for the listed molecules
test: Human HepG2 cell viability assay in 384 well format; format: toxicity, cell-based; design: dose 125 nL, time 70.5 hour; concentration not given beside the values; conditions: HepG2 cells, read-out: Inhibition
Measurement Label: cytotoxicity at 70.5 h (%)

# Molecule, Observed Result
data = [
    ("Cc1nc(C2CCN(C(C)C)CC2)sc1Br", -2.12),
    ("O=C(c1ccncc1)N1CCCC2(COCCN(c3ccccc3)C2)C1 (stereo unspecified)", -16.1),
    ("CC(C)CN1CC(C(=O)NCCc2c[nH]cn2)CC1=O (stereo unspecified)", -0.927),
    ("COc1ccc(OC)c(C(O)CN2CC(n3cccn3)C2)c1 (stereo unspecified)", -9.37),
    ("Cc1nnc(NC(=O)N2CCCN(C3CCCC3)CC2)s1", -2.92),
    ("O=C(c1ccccc1-c1ccccc1)N1C[C@@H]2CNC[C@]2(C(=O)O)C1", 1.22),
    ("CNC(=O)Cc1ccc(-n2ccnc2-c2ccc(C(=O)O)s2)cc1", -5.64),
    ("O=C(NCCSCc1ccco1)c1ccc(N2CCOCC2)cc1", -12.3),
    ("Cc1noc(C)c1CNc1cc(N2CCCC2CO)ncn1 (stereo unspecified)", -5.89),
    ("CC(C)(C)OC(=O)NC(C)(C)c1noc(Cn2ccnc2)n1", -4.72),
    ("COc1ccc(C2=CCN(C(=O)CN(C)Cc3ccco3)CC2)cc1", -11.2),
    ("CN(CCC#N)C(=O)CSc1cc(F)ccc1F", 5.2),
    ("Cc1oc2c(c1C(=O)N1CC[C@H](O)[C@]3(CCCO3)C1)CCCC2", -5.7),
    ("CC(=O)NC(C)CC(=O)NCc1cccnc1Oc1ccccc1C (stereo unspecified)", -6.45),
    ("Cc1nc(COCC2CN(C(N)=O)Cc3nccn3C2)cs1 (stereo unspecified)", -5.1),
    ("O=C(C1CC1)N1CCc2nc(C3CCN(C(=O)C4CC4)C3)nc(O)c2C1 (stereo unspecified)", -10),
]

---

assay: Human HepG2 cell viability assay in 384 well format; format: toxicity, cell-based; parameters: dose 125 nL, time 70.5 hour; concentration not given beside the values; conditions: HepG2 cells, read-out: Inhibition
Readings of cytotoxicity at 70.5 h for the listed compounds

# Compound, Unit Name, cytotoxicity at 70.5 h
data = [
    ("COc1cccc(C(=O)Nc2cc(CC(C)C)nn2C)c1", "%", 3.59),
    ("CN(C)S(=O)(=O)c1cccc(NC(=O)Cc2ccon2)c1", "%", -4.37),
    ("CC(=O)N1CCC(C(=O)c2cc(C)cnc2N)CC1", "%", -15.5),
    ("COc1ccc(SCC2CNc3nc4ccccc4c(=O)n32)cc1 (stereo not given)", "%", 1.56),
    ("Cc1ncsc1C(=O)NCCSCCCO", "%", 9.95),
    ("COc1ccc(NC(=O)CCC2CCCN(S(=O)(=O)C3CC3)C2)c(C)c1 (stereo not given)", "%", -6.39),
    ("O=C(CCCc1nnc(-c2ccccc2)o1)N1CCC1", "%", -14.2),
    ("CS(=O)(=O)Cc1nc(C2CC2)nn1-c1ccccn1", "%", 4.03),
    ("N#Cc1cccc(CN2CC[C@@H]3CO[C@@H](CN4CCCC4)[C@@H]3C2)c1", "%", -4.24),
    ("Cc1ccc(C(C)N(C)Cc2nc3c(cnn3C)c(=O)[nH]2)s1 (stereo not given)", "%", -8.32),
    ("O=C(C1CCCO1)N1CCCn2c(nnc2Cn2cccc2)C1 (stereo not given)", "%", -11.4),
    ("CCn1ncc2c1CCCC2NCc1cc(OC)cc(OC)c1 (stereo not given)", "%", -9.39),
    ("Cc1ccc(CNC(=O)NC2CCCc3c2cnn3CCO)cn1 (stereo not given)", "%", -11.1),
    ("CCCc1noc(CN2CCN(c3nccs3)CC2)n1", "%", -6.87),
    ("Cc1ccc(C)c(C(=O)N2CCC3(CCC(=O)N(CC(N)=O)C3)CC2)c1", "%", 29.9),
]

---

test: Human HepG2 cell viability assay in 384 well format; assay type: toxicity, cell-based; set-up: dose 125 nL, time 70.5 hour; concentration not given beside the values; conditions: HepG2 cells, read-out: Inhibition
Readings of cytotoxicity at 70.5 h for the listed molecules
Measurement Label: cytotoxicity at 70.5 h (%)

# Molecule, Measurement Label, Unit Name, Observed Result
rows = [
    ("CC(Cn1cccn1)NC(=O)NCc1cccnc1OC(C)C (centres undefined)", "cytotoxicity at 70.5 h", "%", -4.84),
    ("Cn1cnc2ccc(NC(=O)CCCn3cccn3)cc2c1=O", "cytotoxicity at 70.5 h", "%", -13.5),
    ("COc1ccc2c(c1)nc1n2[C@@H](CNCc2cnn(C)c2)COC1", "cytotoxicity at 70.5 h", "%", -8.24),
    ("O=C1CC[C@]2(CC[C@@H](NC3CCOCC3)CC2)N1Cc1ccccc1", "cytotoxicity at 70.5 h", "%", -2.63),
    ("CSc1ccc(C(=O)N(c2ccc(F)cn2)C2CCOCC2)o1", "cytotoxicity at 70.5 h", "%", 30.2),
    ("Cc1cc(CN2CCOC(CNc3cccnn3)C2)no1 (centres undefined)", "cytotoxicity at 70.5 h", "%", 2.59),
    ("CN(Cc1cc(C2CC2)on1)C(=O)CN1C(=O)OC(C)(C)C1=O", "cytotoxicity at 70.5 h", "%", 0.377),
    ("Cc1ccc(CNC(=O)Nc2nnc(C)s2)cn1", "cytotoxicity at 70.5 h", "%", -5.53),
    ("COCCN(Cc1sccc1C)c1nc(C)nc2sccc12", "cytotoxicity at 70.5 h", "%", -3.07),
    ("COCCCNc1cc(C)nn2cnnc12", "cytotoxicity at 70.5 h", "%", -4.69),
    ("O=C(NCCNS(=O)(=O)c1ccc2c(c1)CCC2)c1ccccc1", "cytotoxicity at 70.5 h", "%", -1.96),
    ("CCOC(C)C(=O)Nc1cc(S(=O)(=O)NC2CC2)ccc1F (centres undefined)", "cytotoxicity at 70.5 h", "%", 6.35),
    ("CCc1nnc(C(C)N2CCc3cncnc3C2)o1 (centres undefined)", "cytotoxicity at 70.5 h", "%", -3.77),
    ("CCCc1nc(NCCCOC)c2c(n1)c(C)nn2CC", "cytotoxicity at 70.5 h", "%", 18.7),
    ("CN(C)C1CCCN(C(=O)NCCNC(=O)C2CCCC2)C1 (centres undefined)", "cytotoxicity at 70.5 h", "%", -1.02),
    ("CC(C)Cc1ncc2c(n1)CN(c1cc(NC3CC3)nc(N)n1)C2", "cytotoxicity at 70.5 h", "%", 0.238),
    ("NC(=O)C1CN(c2ncnc3c2Cc2ccccc2OC3)CCO1 (centres undefined)", "cytotoxicity at 70.5 h", "%", -3.79),
    ("Cc1ccccc1CS(=O)(=O)NCCCN1CCCC1", "cytotoxicity at 70.5 h", "%", -2.2),
    ("O=C(CNC(=O)C1CC1)NCC(F)(F)F", "cytotoxicity at 70.5 h", "%", 1.27),
    ("CC(C)(CNC(=O)Nc1ccc(S(=O)(=O)C(F)F)cc1)N1CCOCC1", "cytotoxicity at 70.5 h", "%", -7.87),
    ("O=C(c1cc[nH]n1)N1CCN(C(c2ccccc2)C(F)(F)F)CC1 (centres undefined)", "cytotoxicity at 70.5 h", "%", -8.27),
    ("CCOc1cccnc1C(=O)N1CCCN(c2nc(C)cs2)CC1", "cytotoxicity at 70.5 h", "%", -3.42),
    ("Cc1cnn(CC2CCCN2Cc2nnsc2Cl)c1 (centres undefined)", "cytotoxicity at 70.5 h", "%", 31.9),
    ("Nc1cc2c(nn1)CCN(C(=O)c1csc(-c3ccccc3)n1)C2", "cytotoxicity at 70.5 h", "%", -1.92),
    ("OC1(CNC2CCN(Cc3ccncc3)CC2)CCc2ccccc21 (centres undefined)", "cytotoxicity at 70.5 h", "%", -5.39),
    ("CC(C)n1c(=O)c2sccc2n(CC(=O)Nc2ccccc2)c1=O", "cytotoxicity at 70.5 h", "%", -11),
    ("CC(C)CN1C(=O)C2(CCCC2)NC1c1c[nH]nc1-c1cccnc1 (centres undefined)", "cytotoxicity at 70.5 h", "%", -3.57),
    ("Cc1nn(C)c(N(C)C)c1CNCc1ccnc(N2CCCC2)c1", "cytotoxicity at 70.5 h", "%", -4.33),
    ("COc1c(CNCCNC(=O)c2ccco2)c(C)nn1C", "cytotoxicity at 70.5 h", "%", -10.7),
    ("Cc1nc(C)c(CNC(=O)NC2CC(C)(C)OC2(C)C)s1 (centres undefined)", "cytotoxicity at 70.5 h", "%", -0.473),
    ("CN(C)C(=O)CNC(=O)c1ccn(-c2ccc3ccccn23)n1", "cytotoxicity at 70.5 h", "%", -8.61),
    ("CN(Cc1ccco1)C[C@H]1OC[C@@H]2CCN(Cc3ccsc3)C[C@@H]21", "cytotoxicity at 70.5 h", "%", -7.38),
    ("Cc1cccc(CC2CCCN(C(=O)C3CCOCC3)C2)n1 (centres undefined)", "cytotoxicity at 70.5 h", "%", -8.54),
    ("COc1ccccc1C(NC(=O)CN(C)C(C)C)c1noc(C)n1 (centres undefined)", "cytotoxicity at 70.5 h", "%", -2.25),
    ("CC(Cc1ccc(Cl)cc1)N(C)C(=O)NCCS(C)(=O)=O (centres undefined)", "cytotoxicity at 70.5 h", "%", 18.5),
    ("CC(=O)N1CC2(CCN(Cc3ccc(Cl)cc3)CC2)Cc2ccccc21", "cytotoxicity at 70.5 h", "%", 9.92),
    ("CC(C)N(Cc1ccccn1)C(=O)CCC(=O)c1ccccc1", "cytotoxicity at 70.5 h", "%", -7.32),
    ("Cc1cn(-c2ccccc2)nc1NS(=O)(=O)c1cc(C(=O)O)sc1C", "cytotoxicity at 70.5 h", "%", -18.9),
    ("CC(C)C[C@@H](CO)n1cc(-c2cncnc2)nn1", "cytotoxicity at 70.5 h", "%", 1.71),
]
